Tested on: Haemophilus influenzae
Test: Antibacterial activity against Haemophilus influenzae HI3542
Assay type: functional
Reported MIC values follow for various molecules
readout_name: MIC

molecule: Cc1c(N2CC[C@@H]([C@H](C)N)C2)c(F)cc2c(=O)n(N)c(=O)n(C3CC3)c12
measured: 0.125 µg/mL
--
molecule: COc1c(N2CCNC(C)C2)c(F)cc2c(=O)c(C(=O)O)cn(C3CC3)c12 (stereo unspecified)
measured: 0.015 µg/mL
--
molecule: O=C(O)c1cn(C2CC2)c2cc(N3CCNCC3)c(F)cc2c1=O
measured: 0.008 µg/mL
--
molecule: COc1c(N2CC[C@@H]([C@H](C)N)C2)c(F)cc2c(=O)n(N)c(=O)n(C3CC3)c12
measured: 0.25 µg/mL
--
molecule: C[C@H]1COc2c(N3CCN(C)CC3)c(F)cc3c(=O)c(C(=O)O)cn1c23.C[C@H]1COc2c(N3CCN(C)CC3)c(F)cc3c(=O)c(C(=O)O)cn1c23.O
measured: 0.008 µg/mL
--
molecule: C[C@H]1NCc2cc(-c3ccc4c(=O)c(C(=O)O)cn(C5CC5)c4c3OC(F)F)ccc21
measured: 0.015 µg/mL
